- Target: SARS-CoV-2 spike protein on live virus, B1.351 (beta variant) (SARS-CoV-2, B1.351)
- Protocol Description: cell-based or functional assay
The label satisfied is reserved for Live Neut, B1.351 IC50 (pM) strictly under 200 pM; not satisfied covers values equal to or above it.

[
  {
    "Binder": "antibody 2892 (antibody, V domains shown) VH: QVQLVQSGAEVKKPGSSVKVSCKASGDAFISYAISWVRQAPGQGLEWMGGIIPIFGTANYAQKFQGRVTISADESTSTAYMELSRLRSEDTAVYYCARGGPEPYGSGSGYTPRYNWFDPWGQGTLVTVSS VL: QSALTQPRSVSGSPGQSVTISCTGTSSDVGGYNYVSWYQQHPGKAPKFMIYDVNRRPSGVPDRFSGSKSGNTASLTISGLQAEDEADYYCCSYAGTYTWVFGGGTKLTVL",
    "Assigned Class": "not satisfied"
  },
  {
    "Binder": "antibody 2564 (antibody, V domains shown) VH: QVQLVQSGAEVKKPGSSVRVSCKASGGTFISYTFNWVRQAPGQGLEWMGRIIPIFGIVNYAQKFQGRVTIAADKSTSTAYMELSSLRSEDTAMYYCATATVDYDSGEEQSSFDPWGQGTLVTVSS VL: EIVLTQSPGTLSLSPGERATLSCRASQSVSSSYLAWYQQKAGQTPRLLIYAASSRATGVPDRFSGSGSGTDFTLTISRLEAEDFAVYYCQQSWTFGQGTKVEIK",
    "Assigned Class": "satisfied"
  },
  {
    "Binder": "antibody 4042 (antibody, V domains shown) VH: QITLKESGPTLVKPTQTLTLTCTFSGFSLSSGGVGVGWIRQPPGKALEWLALIYWDDDKRYRPSLKSRLTITRDTSTNQVVLTMTNMDPVDTATYFCARHQIATVFDHWGQGTLVTVSS VL: QSALTQPASVSGSPGQSITISCTGTSSDVGGYNYVSWYQQHPGKAPKLMIYEVSNRPSGVSSRFSGSKSGNTASLTISGLQAEDEADYYCSSYTRSSPLVAFGGGTKVTVL",
    "Assigned Class": "satisfied"
  },
  {
    "Binder": "antibody 980 (antibody, V domains shown) VH: QVQLVESGGGVVQPGRSLRLSCAASGFTFSRYGMHWVRQAPGKGLEWVALISSGGSNKYYADSVKGRFTISRDNSKNTLYLEMNSLRAEDTAVYYCAKDAIYDYIWGAYRENWFDPWGQGTLVTVSS VL: DIQMTQSPSSLSASVGDRVTITCRASQSISNYLNWYQQKPGKAPNLLIYAASSLQSGVPSRFSGSGSGTDFTLTISSLQPEDFATYYCQQTSSPPLTFGQGTKVEIK",
    "Assigned Class": "satisfied"
  },
  {
    "Binder": "antibody 3091 (antibody, V domains shown) VH: QMQLVQSGPEVKKPGTSVKVSCKASGFTFSSSAVQWVRQARGQGLEWIGWIVVGSGNANYAQKLQERVSITRDMSTSTAYMELSSLRPEDTAVYYCAAPHCSRTICHDGFDMWGQGTMVTVSS VL: EIVLTQSPGTLSLSPGERATLSCRASQSVRSSYLAWYQQKPGQAPRLLMFVASSRATGIPDRFSGSGSGTDFTLTISRLEPEDFAVYYCQQYDTSPWTFGQGTKVEIK",
    "Assigned Class": "satisfied"
  },
  {
    "Binder": "antibody 3086 (antibody, V domains shown) VH: QVQLQESGPGLVKPSETLSLTCTVSGGSISGHYWSWIRQPPGKGLEWIGYIYYSGSTNYNPSLKSRVTISVDTSVNQFSLKLSSVTAADTAVYYCARQEARDAVGNYFFDSWGQGTLVTVSS VL: QSALTQPASVSGSPGQSITISCSGTSSDIGSYDLVSWYQQHPGKAPKLLIYDVTKRPSGVSHRFSGSKSGNTASLTISGLQGEDEADYYCCSYVHFSTWVFGGGTKLTVL",
    "Assigned Class": "not satisfied"
  }
]
